Assay: qHTS assay to identify small molecule agonists of the TGF-beta/Smad signaling pathway (AID 1346859)
Details: SBE-bla HEK293T, TGF-beta/Smad beta-lactamase reporter, 5 h; series mostly up to 76.8 µM
Inconclusive results are not listed. Activity calls are given as the source filed them. Calls come from the whole dose curve; as a rule, active = well fitted activation curve with a large enough effect in the signal ratio in the repeat runs (not every such curve was filed as active); inconclusive = weak or mixed curves; inactive = flat fitted curve, though single readings scatter; the % refers to the signal ratio.
Observable: activation

Cc1nc2n(c(=O)c1CCN1CCC(C(=O)c3ccc(F)cc3)CC1)CCS2
inactive
CCOC(=O)CC#N
inactive
CCCCC(CC)C(=O)OC(C)C (configuration not stated)
inactive
CCC(O)C(C)(C)C (configuration not stated)
inactive
CC(C)CCO
inactive
COC(OC)C(C)c1ccccc1 (configuration not stated)
inactive
CCC(C)(CCC(C)C)C(=O)[O-].CCC(C)(CCC(C)C)C(=O)[O-].[Zn+2] (configuration not stated)
inactive
